- tested system: Endothelin receptor type B (Homo sapiens, UniProt P24530)
- Sequence (P24530 whole entry): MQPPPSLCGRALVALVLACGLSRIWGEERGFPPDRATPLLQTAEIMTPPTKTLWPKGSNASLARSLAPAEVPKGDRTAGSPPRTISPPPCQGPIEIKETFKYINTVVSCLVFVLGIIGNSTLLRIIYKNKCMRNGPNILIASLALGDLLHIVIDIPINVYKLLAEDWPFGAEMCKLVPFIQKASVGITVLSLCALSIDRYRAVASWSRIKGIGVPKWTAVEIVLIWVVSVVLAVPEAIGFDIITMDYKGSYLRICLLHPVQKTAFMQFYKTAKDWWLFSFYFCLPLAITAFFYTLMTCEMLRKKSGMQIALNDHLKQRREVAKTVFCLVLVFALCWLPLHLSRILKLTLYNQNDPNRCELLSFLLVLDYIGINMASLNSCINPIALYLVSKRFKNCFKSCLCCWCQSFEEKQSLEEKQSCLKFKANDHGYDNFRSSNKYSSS
Assembled from different publications: IC50 for Endothelin receptor type B (Homo sapiens, UniProt P24530).
Numbers only here, please. The scale is µM.

1) COc1ccc([C@H]2[C@H](C(=O)O)[C@@H](c3ccc4c(c3)OCO4)CN2CC(=O)NC(c2ccccc2)C(C)(C)C)cc1 (some centres not stated) = 0.00094
2) CCc1cc2c(cc1Cn1c(C(=O)O)c(Cc3cccc(C(=O)O)c3)c(=O)c3cc(OC(C)C)ccc31)OCO2 = 0.677
3) CCc1cc2c(cc1Cn1c(C(=O)O)c(Cc3cccc(C(=O)O)c3)c(=O)c3ccccc31)OCO2 = 0.571
4) COc1ccc([C@@H]2c3nc(NC(C)C)ccc3[C@H](c3ccc4c(c3)OCO4)[C@H]2C(=O)O)c(OCC(C)C)c1 = 0.42
5) Cc1ccc(-c2ccsc2S(=O)(=O)Nc2onc(C)c2Br)cc1 = 95.5

Task: I am curious: what IC50 value has been reported for COc1ccc([C@@H]2c3nc(NC(C)C)ccc3[C@H](c3ccc4c(c3)OCO4)[C@H]2C(=O)O)c(CCCO)c1 ?
Result: 0.02

Task: I am curious: what IC50 value has been reported for Cc1[nH]c([C@@H](Cc2cn(C)c3ccccc23)NC(=O)[C@H](CC(C)C)OC(=O)NC2CCCCC2)nc1C(=O)O ?
Result: 54

Task: I am curious: what IC50 value has been reported for CC(C)c1ccc(S(=O)(=O)NC(=O)C(c2ccc3c(c2)OCO3)c2cn(C)c3cc(CO)ccc23)cc1 (configuration not stated) ?
Result: 0.45

Task: I am curious: what IC50 value has been reported for Cc1[nH]c([C@@H](Cc2cn(C)c3ccccc23)NC(=O)[C@H](CC(C)C)NC(=O)N(C)C2CCCCC2)nc1C(=O)O ?
Result: 20

Task: I am curious: what IC50 value has been reported for COc1ccccc1Oc1c(NS(=O)(=O)c2ccc(C(C)(C)C)cc2)nc(C(C)C)nc1OCCOC(=O)Nc1ccccn1 ?
Result: 0.16

Task: I am curious: what IC50 value has been reported for Cc1noc(NS(=O)(=O)c2ccsc2C(=O)Nc2ccc3c(c2)OCO3)c1Br ?
Result: 10.1

Task: I am curious: what IC50 value has been reported for COc1ccc([C@H]2[C@H](C(=O)O)[C@@H](c3ccc4c(c3)OCO4)CN2CC(=O)Nc2c(C)cccc2C)cc1 ?
Result: 0.016

Task: I am curious: what IC50 value has been reported for COc1ccc([C@@H]2c3nc(C)ccc3[C@H](c3ccc4c(c3)OCO4)[C@H]2C(=O)O)cc1 ?
Result: 0.1

Task: I am curious: what IC50 value has been reported for CCOc1cc(C)ccc1S(=O)(=O)NC(=O)C(c1ccc2c(c1)OCO2)c1cn(C)c2cc(C(N)=O)ccc12 (configuration not stated) ?
Result: 0.397
